- targetUnderTest: Phe223Ala MTHFR (Escherichia coli, UniProt P0AEZ1, F223A)
- assayNotes: Oxidative half-reaction with CH2-H4folate, stopped-flow
observationType: Kd (µM)
Provide the reading as a plain figure in µM.

(Q) Any idea what Kd was measured for Nc1nc2c(c(=O)[nH]1)N1CN(c3ccc(C(=O)N[C@@H](CCC(=O)O)C(=O)O)cc3)C[C@H]1CN2 [CH2-H4folate, 5,10-methylenetetrahydrofolate] ?
(A) 500

* * *

- targetUnderTest: Phe223Leu MTHFR (Escherichia coli, UniProt P0AEZ1, F223L)
- assayNotes: NADH-CH2-H4folate oxidoreductase assay, steady-state
observationType: Ki (µM)
Provide the reading as a plain figure in µM.

(Q) Any idea what Ki was measured for Nc1nc2c(c(=O)[nH]1)N1CN(c3ccc(C(=O)N[C@@H](CCC(=O)O)C(=O)O)cc3)C[C@H]1CN2 [CH2-H4folate, 5,10-methylenetetrahydrofolate] ?
(A) 160
